Assign AC50 to each entry below.
studyTarget: human PAH with the R408W mutation (Homo sapiens, UniProt P00439, R408W)
Construct: expressed in transfected cells
experimentalDetails: Cell Based Phenylalanine Flux Assay
conditionNotes: A375 cells expressing human R408W PAH; 24 hrs compound incubation; 13C-Tyrosine by LC-MS; average where tested multiple times; read-out: AC50

O=C(c1cnn(CC(F)(F)F)c1Cl)N1CCc2[nH]cnc2[C@H]1c1nc2c(F)cccc2s1 ... < 500 nM
O=C(c1ocnc1C(F)(F)F)N1CCc2[nH]cnc2[C@@H]1c1nc2ccccc2s1 ... 500 to 1000 nM

Provide the reported AC50 of each entry below, same order.
1. O=C(c1ocnc1C1CC1)N1CC2(CC2)c2[nH]cnc2[C@H]1c1nc2ccccc2s1
2. CC1(C(=O)N2CCc3[nH]cnc3[C@H]2c2nc3ccccc3s2)CC1(F)F (single isomer, unassigned) [Example 1292]
3. O=C(c1ccnn1C1CC1)N1CCc2[nH]cnc2[C@@H]1c1nc2c(F)cccc2s1
4. O=C(c1cnc(-c2ccc(C(F)(F)F)nc2)s1)N1CCc2[nH]cnc2[C@@H]1c1nc2ccccc2s1
5. COCCc1ccc2c(C(=O)N3CCc4[nH]cnc4[C@H]3c3nc4ccccc4s3)c(C#N)nn2c1

1: < 500 nM; 2: 1000 to 5000 nM; 3: 1000 to 5000 nM; 4: 1000 to 5000 nM; 5: < 500 nM

====

studyTarget: human PAH with the R408W mutation (Homo sapiens, UniProt P00439, R408W)
Construct: expressed in transfected cells
experimentalDetails: Cell Based Phenylalanine Flux Assay
conditionNotes: A375 cells expressing human R408W PAH; 24 hrs compound incubation; 13C-Tyrosine by LC-MS; average where tested multiple times; read-out: AC50
reportedMetric: AC50

These solved cases illustrate the format of a correct answer.
Nc1nc(C(F)(F)F)c(C(=O)N2CCc3[nH]cnc3[C@H]2c2nc3ccccc3s2)o1 [Example 1533] ... < 0.5 µM
O=C([C@@H]1CC1(F)F)N1CCc2[nH]cnc2[C@H]1c1nc2c(F)cccc2s1 [Example 1645] ... 0.5 to 1 µM
O=C(c1cnn2ccc(Br)cc12)N1CCc2[nH]cnc2[C@@H]1c1nc2ccc(F)cc2s1 [Example 1138] ... 1 to 5 µM
C[C@@H]1CN(C(=O)c2ocnc2C2CC2)[C@@H](c2nc3c(F)cccc3s2)c2nc[nH]c21 [Example 1552] ... 1 to 5 µM
Cn1nc(C(F)F)nc1C(=O)N1CCc2[nH]cnc2[C@H]1c1nc2ccccc2s1 [Example 2171] ... 1 to 5 µM
O=C(c1nccs1)N1CCc2[nH]cnc2[C@@H]1c1nc2ccccc2[nH]1 [Example 902] ... > 5 µM
O=C(c1nccs1)N1CCc2[nH]cnc2[C@@H]1c1nc2cccc(F)c2s1 [Example 1102] ... 1 to 5 µM

I'd like to know its AC50. The compound in question is N#Cc1nn2cc(Br)ccc2c1C(=O)N1CCc2[nH]cnc2[C@@H]1c1nc2ccccc2s1 [Example 1780]
1 to 5 µM

====

studyTarget: human PAH with the R408W mutation (Homo sapiens, UniProt P00439, R408W)
Construct: expressed in transfected cells
Sequence (P00439 1-452 R408W): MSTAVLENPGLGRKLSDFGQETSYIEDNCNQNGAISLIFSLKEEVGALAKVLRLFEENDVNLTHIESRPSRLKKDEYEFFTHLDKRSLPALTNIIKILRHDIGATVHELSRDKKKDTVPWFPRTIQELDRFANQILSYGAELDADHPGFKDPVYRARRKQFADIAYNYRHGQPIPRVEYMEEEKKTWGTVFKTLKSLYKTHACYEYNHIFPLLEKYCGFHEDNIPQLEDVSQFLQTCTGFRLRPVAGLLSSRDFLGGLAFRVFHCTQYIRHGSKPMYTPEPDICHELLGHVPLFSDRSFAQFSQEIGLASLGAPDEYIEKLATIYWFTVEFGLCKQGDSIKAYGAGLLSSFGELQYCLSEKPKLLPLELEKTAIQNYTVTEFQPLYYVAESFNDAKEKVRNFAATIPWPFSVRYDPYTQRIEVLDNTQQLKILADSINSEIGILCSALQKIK
experimentalDetails: Cell Based Phenylalanine Flux Assay
conditionNotes: A375 cells expressing human R408W PAH; 24 hrs compound incubation; 13C-Tyrosine by LC-MS; average where tested multiple times; read-out: AC50
Assign AC50 to each entry below.

O=C(c1oc(-c2ccccn2)nc1C1CC1)N1CCc2[nH]cnc2[C@H]1c1nc2ccccc2[nH]1 ... 0.5 to 1 µM

Provide the reported AC50 of each entry below, same order.
1. O=C(c1cnn2ccc(Br)cc12)N1CCc2[nH]cnc2[C@H]1c1nc2ccccc2s1
2. N#Cc1nc(NC2CC2)oc1C(=O)N1CCc2[nH]cnc2[C@H]1c1nc2ccccc2s1
3. O=C(c1cnc(C(F)(F)F)o1)N1CCc2[nH]cnc2[C@@H]1c1nc2c(F)cccc2s1
4. N#Cc1ccn2ncc(C(=O)N3CCc4[nH]cnc4[C@H]3c3nc4ccc(F)cc4s3)c2c1
5. O=C(c1nnc(-c2cnn(S(=O)(=O)C3CC3)c2)o1)N1CCc2[nH]cnc2[C@@H]1c1nc2ccccc2s1
6. O=C(c1nc2ccccc2s1)N1CCc2[nH]cnc2[C@@H]1c1nc2ccccc2s1
7. O=C(c1cnc(-c2ccccn2)s1)N1CCc2[nH]cnc2[C@H]1c1nc2ccccc2s1
8. COc1cccc(CCCC(=O)N2CCc3[nH]cnc3[C@@H]2c2nc3ccccc3[nH]2)c1

1: < 0.5 µM; 2: 1 to 5 µM; 3: 1 to 5 µM; 4: 0.5 to 1 µM; 5: 1 to 5 µM; 6: 1 to 5 µM; 7: < 0.5 µM; 8: > 5 µM

====

Assign AC50 to each entry below.
studyTarget: human PAH with the R408W mutation (Homo sapiens, UniProt P00439, R408W)
Construct: expressed in transfected cells
experimentalDetails: Cell Based Phenylalanine Flux Assay
conditionNotes: A375 cells expressing human R408W PAH; 24 hrs compound incubation; 13C-Tyrosine by LC-MS; average where tested multiple times; read-out: AC50

These solved cases illustrate the format of a correct answer.
Cc1nn2ccccc2c1C(=O)N1CCc2[nH]cnc2[C@H]1c1nc2ccccc2s1 ... < 500 nM
O=C(c1nc(Cl)cs1)N1CCc2[nH]cnc2[C@@H]1c1nc2ccccc2s1 ... 1000 to 5000 nM
O=C(c1nccs1)N1CCc2[nH]cnc2[C@@H]1c1nc2cccc(Cl)c2[nH]1 ... > 5000 nM
O=C(c1ncn2ccccc12)N1CCc2[nH]cnc2[C@H]1c1nc2cc(F)ccc2s1 ... 500 to 1000 nM
O=C(CCC1CC1)N1CCc2[nH]cnc2[C@H]1c1nc2ccccc2s1 ... < 500 nM
O=C(C1CC1)N1CCc2[nH]cnc2[C@@H]1c1nc2ccc(Br)cc2[nH]1 ... > 5000 nM
CC(F)c1nc(C(F)F)c(C(=O)N2CCc3[nH]cnc3[C@@H]2c2nc3c(F)cccc3s2)o1 (some centres unmarked) ... 500 to 1000 nM
O=C(c1scnc1Cl)N1CCc2[nH]cnc2[C@@H]1c1nc2ccc(F)cc2s1 ... > 5000 nM

Provide the reported AC50 of each entry below, same order.
1. O=C(c1nnc(N2CCC(F)CC2)o1)N1CCc2[nH]cnc2[C@H]1c1nc2ccccc2s1
2. O=C(c1oc(-c2ccccn2)nc1C(F)F)N1CCc2[nH]cnc2[C@@H]1c1nc2ccccc2s1

< 500 nM
< 500 nM

Provide the reported AC50 of each entry below, same order.
1. CC(C)(O)c1nc(C(F)(F)F)c(C(=O)N2CCCc3[nH]cnc3[C@@H]2c2nc3ccccc3s2)o1
2. Cc1nc(C(C)(C)F)oc1C(=O)N1CCc2[nH]cnc2[C@H]1c1nc2c(F)cccc2s1
3. O=C(c1oc(-c2ccccn2)nc1C(F)(F)F)N1CCCc2[nH]cnc2[C@H]1c1nc2ccccc2s1

1: 1000 to 5000 nM; 2: < 500 nM; 3: 500 to 1000 nM

Provide the reported AC50 of each entry below, same order.
1. O=C(CC1CC1)N1CCc2[nH]cnc2[C@H]1c1nc2ccccc2[nH]1
2. COCc1nc(C(F)F)c(C(=O)N2CCc3[nH]cnc3[C@H]2c2nc3ccccc3s2)o1
3. C[C@H]1CN(C(=O)c2nnc(-c3ccc(F)cn3)o2)[C@@H](c2nc3ccccc3s2)c2nc[nH]c21
4. Cc1c(-c2ncc(C(=O)N3CCc4[nH]cnc4[C@H]3c3nc4ccccc4s3)s2)cnn1C

1: < 500 nM; 2: < 500 nM; 3: > 5000 nM; 4: < 500 nM

====

studyTarget: human PAH with the R408W mutation (Homo sapiens, UniProt P00439, R408W)
Construct: expressed in transfected cells
experimentalDetails: Cell Based Phenylalanine Flux Assay
conditionNotes: A375 cells expressing human R408W PAH; 24 hrs compound incubation; 13C-Tyrosine by LC-MS; average where tested multiple times; read-out: AC50
reportedMetric: AC50

These solved cases illustrate the format of a correct answer.
O=C(C1CC1(F)F)N1CCc2[nH]cnc2[C@@H]1c1nc2ccccc2s1 (single isomer, unassigned) [Example 1286] ... 1000 to 5000 nM
O=C(CCC1CC1)N1CCc2[nH]cnc2[C@@H]1c1nc2cc(F)ccc2s1 ... 1000 to 5000 nM
O=C(c1ccon1)N1CCc2[nH]cnc2[C@H]1c1nc2ccc(Cl)cc2[nH]1 ... 500 to 1000 nM

Provide the reported AC50 of each entry below, same order.
1. O=C(C1CN(c2ccc(F)cn2)C1)N1CCc2[nH]cnc2[C@H]1c1nc2ccccc2s1
2. O=C(c1cnc(-c2ccc(C(F)(F)F)cn2)s1)N1CCc2[nH]cnc2[C@H]1c1nc2ccccc2s1
3. CC(C)(O)c1nc(C(F)F)c(C(=O)N2CCc3[nH]cnc3[C@H]2c2nc3c(F)cccc3s2)s1
4. CC(C)(F)c1ccc2c(C(=O)N3CCc4[nH]cnc4[C@@H]3c3nc4ccccc4s3)cnn2c1

["1000 to 5000 nM", "1000 to 5000 nM", "< 500 nM", "1000 to 5000 nM"]

Hey, just so you know, these numbers are from patent US20250171438A1.
